- assay_summary: MRT (0 to 7 hrs) in mouse at 140 micromol/kg, po
- Type: ADME
- conditions_used: in vivo, dose 140 µmol/kg

given_smiles	endpoint_unit	MRT last
COc1ccccc1CNC(=O)CCn1c(=O)[nH]c2ccccc2c1=O	h	3.01

* * *

- assay_summary: Selectivity index, ratio of IC50 for human AB943 cells to IC50 for Antimalarial activity against chloroquine-resistant Plasmodium falciparum FcB1(CQR)Colombia
- Assay type: toxicity
- conditions_used: read-out: Selectivity Index

given_smiles	selectivity ratio
CCOc1ccccc1CNC(=O)CCn1c(=O)[nH]c2ccccc2c1=O	> 18.2
O=C(CCn1c(=O)[nH]c2ccccc2c1=O)NCc1ccccc1OC(F)(F)F	> 14.7
COc1cc(F)ccc1CNC(=O)CCn1c(=O)[nH]c2ccccc2c1=O	> 20
COc1ccccc1CNC(=O)CCn1c(=O)[nH]c2ccccc2c1=O	> 250

* * *

- assay_summary: Cmax in mouse at 140 micromol/kg, po
- Assay type: ADME
- Parameters: route oral, dose 140 µmol/kg
- conditions_used: in vivo, 140 µmol/kg

given_smiles	Cmax (nM)
COc1ccccc1CNC(=O)CCn1c(=O)[nH]c2ccccc2c1=O	21.3

Taken from ChEMBL document CHEMBL4840368.
